Tested on: rat brain monoamine oxidase-B (Rattus norvegicus)
Construct: appropriately diluted homogenates of rat brain or liver; from tissue; host or cells: rat brain or liver homogenate
Sequence (P19643 whole entry): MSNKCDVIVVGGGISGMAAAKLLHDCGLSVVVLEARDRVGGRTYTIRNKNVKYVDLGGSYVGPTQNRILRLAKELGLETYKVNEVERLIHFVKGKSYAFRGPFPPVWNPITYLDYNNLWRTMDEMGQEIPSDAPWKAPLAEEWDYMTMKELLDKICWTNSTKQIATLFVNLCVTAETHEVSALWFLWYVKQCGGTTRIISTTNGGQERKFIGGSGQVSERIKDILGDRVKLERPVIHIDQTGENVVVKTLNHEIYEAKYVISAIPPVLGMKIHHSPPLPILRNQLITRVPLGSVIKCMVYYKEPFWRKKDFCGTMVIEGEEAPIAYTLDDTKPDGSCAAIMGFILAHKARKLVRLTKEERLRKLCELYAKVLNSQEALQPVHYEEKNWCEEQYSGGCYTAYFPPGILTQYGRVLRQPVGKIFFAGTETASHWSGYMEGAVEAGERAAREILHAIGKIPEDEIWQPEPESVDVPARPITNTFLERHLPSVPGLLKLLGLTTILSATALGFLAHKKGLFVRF
Assay explanation: Monoamine oxidase-B inhibiting activity in vitro (radiochemical, β-phenylethylamine substrate, rat brain homogenate)
Assay type: biochemical
Condition notes: 1 × 10^-6 M
Listed compounds paired with reported inhibition at 1 µM
Outcome measure: inhibition at 1 µM

>>> print(df.to_string())
                                   compound     outcome_measure  result
0                  C#CCN(CCc1ccccc1)NC(C)=O  inhibition at 1 µM   28.8%
1  C#CCN(N)c1ccccc1 [CVT-P047, N^1 -propargylphenylhydrazine]  inhibition at 1 µM   65.1%
2  C#CCN(N)Cc1ccccc1 [CVT-P046, N^1 -propargylbenzylhydrazine]  inhibition at 1 µM   86.2%
3  NNCCc1ccccc1 [phenelzine, 1-(2-phenyl) ethylhydrazine, reference compound]  inhibition at 1 µM   90.1%
4                        C#CCN(N)CCc1ccccc1  inhibition at 1 µM   88.8%

Values from patent US6060516A
